Quick list: TGI per entry.
Tested on: HT29 colon
Test Method Notes: NCI tumour cell line growth inhibition, 48 h

Study these solved cases before continuing.
[
  {
    "Compound": "NC(N)=N/N=C/c1c(-c2cc([N+](=O)[O-])c(Cl)cc2Cl)nc2sccn12",
    "Value Observed": "3.18 µM"
  },
  {
    "Compound": "COc1cccc2c1/c(=C/c1ccc(N(C)C)cc1)c1cc(-c3ccccc3)[n+](C)n12",
    "Value Observed": "0.129 µM"
  },
  {
    "Compound": "CCOC(=O)[C@@H]1CCN2CN(c3ccc(OC)cc3)N=C(c3ccccc3)[C@@]12c1ccccc1",
    "Value Observed": "72.4 µM"
  }
]

## Task Please state recorded TGI (tested on HT29 colon) of C[C@]12CCC(=O)C(O)=C1CC[C@@H]1C2CC[C@]2(C)Nc3c(cnn3-c3ccccc3)CC12 (stereo not given in full)
## Result > 100 µM

## Task Record lookup: for HT29 colon, what TGI belongs to COc1ccc(N2C(=O)C(C)SC2c2cc3cc(Br)ccc3nc2Cl)cc1 (stereo not given) ?
## Result > 100 µM

## Task Which TGI is reported with HT29 colon for this entry: "O=C(c1ccccc1)[C@@H]1C[C@H](Sc2ccccc2)c2cc(Cl)ccc2N1" ?
## Result 56.3 µM

## Task API: value(readout=TGI, system=HT29 colon) for record CCCCCCCCCCC(C(O)c1ccccc1)N1CCCCC1 (stereo not given)
## Result 4.41 µM

## Task For HT29 colon, provide TGI of "CNCCNc1c2c(c(NCCNC)c3[nH]ccc13)C(=O)c1ccccc1C2=O" please.
## Result 5.23 µM

## Task Record O=C(O)CCC(NC(=O)c1ccccc1)C(=O)O (stereo not given) : what is its TGI with HT29 colon?
## Result > 100 µM

## Task Form: Entry = COc1cc(C(O)C(=O)c2nc3ccc([N+](=O)[O-])cc3[nH]c2=O)ccc1O (stereo not given) | System = HT29 colon | TGI = ____
## Result > 100 µM

###

Test system: PC-3 prostate
Test Method Notes: NCI tumour cell line growth inhibition, 48 h; in the data active = GI50 below about 0.43 µM; inactive = the rest
Outcome field: choose from active, inactive

[
  {
    "Molecule": "COc1cc(/C=N/NC(=O)c2cnn3c2NC(c2ccccc2)C3)ccc1Oc1ccccc1 (stereo not given)",
    "Qualitative Label": "inactive"
  }
]

## Task Returns: the outcome recorded for "Oc1[nH]c2c(Br)cccc2c1C1=Nc2ccccc2/C1=N/OCCN1CCCC1" in this assay.
## Result inactive

## Task Hey, what did the test say about "COc1cccc2c1C(=O)c1c(O)c3c(c(O)c1C2=O)C[C@@](O)(C(=O)CO)C[C@@H]3O[C@H]1C[C@H](N)[C@@H](O)[C@H](C)O1" ?
## Result inactive

## Task For this molecule, state the assay outcome: "C=C(C)[C@@H]1CC[C@]2(C)[C@H](CC=C3[C@@H]4[C@@H](C)[C@H](C)CC[C@]4(C(N)=O)CC[C@]32C)[C@@]1(C)CCC#N"
## Result inactive

###

Tested on: DU-145 prostate
Test Method Notes: NCI tumour cell line growth inhibition, 48 h
Experimental Endpoint: TGI (µM)
Give just the number in µM; leave the unit off.

[
  {
    "Compound": "CC(C)COCC(CN(Cc1ccccc1)c1ccccc1)N1CCCC1 (stereo unspecified)",
    "Units Text": "µM",
    "Value Observed": 13.6
  },
  {
    "Compound": "O=C(c1ccccc1)C(Br)C(Br)c1cccc([N+](=O)[O-])c1 (stereo unspecified)",
    "Units Text": "µM",
    "Value Observed": 6.33
  }
]

## Task Name the reported TGI value associated with the compound "Cc1cc2[nH]c(=O)c3c4ccccc4cn3c2cc1C"
## Result 30.1

###

Tested on: HS 578T breast
Test Method Notes: NCI tumour cell line growth inhibition, 48 h; in the data active means GI50 below about 0.43 µM; inactive means the rest
The reply should name one outcome from True for active, False for inactive

[
  {
    "Molecule": "CC(NCCC(=O)N(CCC(=O)N(CCC(=O)N(CCC(=O)N(CCC(=O)N(CCC(=O)N(CCC(=O)N(CCC(=O)N(CCC(=O)N(CCC(=O)O)[C@H](C)c1ccccc1)[C@H](C)c1ccccc1)[C@H](C)c1ccccc1)[C@H](C)c1ccccc1)[C@H](C)c1ccccc1)[C@H](C)c1ccccc1)[C@H](C)c1ccccc1)[C@H](C)c1ccccc1)[C@H](C)c1ccccc1)c1ccccc1 (some centres not stated)",
    "Qualitative Label": "False"
  }
]

Now consider the entry below.
## Task Returns: the outcome recorded for "CCC[CH2][Sn]([CH2]CCC)([CH2]CCC)[O]C(=O)c1ccc(Cl)cc1Cl" in this assay.
## Result True

###

System: SN12C renal
Test Method Notes: NCI tumour cell line growth inhibition, 48 h; in the data active = GI50 below about 0.43 µM; inactive = the rest
Thanks in advance; please answer with one of these: t for active, f for inactive

The following molecules have reported results that may help.
[
  {
    "Molecule": "CCCCCCCCCCCCOC1C(C(COC2OC(C3COC(C)(C)O3)C3OC(C)(C)OC23)NC(=O)NS(=O)(=O)c2ccccc2)OC2OC(C)(C)OC21 (stereo not drawn)",
    "System Under Test": "SN12C renal",
    "Qualitative Label": "f"
  },
  {
    "Molecule": "Oc1ccccc1CNCC12CC3CC(CC(C3)C1)C2",
    "System Under Test": "SN12C renal",
    "Qualitative Label": "f"
  },
  {
    "Molecule": "Oc1ccccc1C=Nc1nc(SCc2ccccc2)nc2[nH]ncc12",
    "System Under Test": "SN12C renal",
    "Qualitative Label": "f"
  },
  {
    "Molecule": "COc1cc2c(cc1OCCCCCOc1ccc(-n3c(C)nc4ccccc4c3=O)cc1)N=C[C@@H]1CCCN1C2=O",
    "System Under Test": "SN12C renal",
    "Qualitative Label": "t"
  },
  {
    "Molecule": "Cc1cc(NCc2cc(Nc3ccnc4cc(Cl)ccc34)ccc2F)nc(N2CCN(C)CC2)n1",
    "System Under Test": "SN12C renal",
    "Qualitative Label": "f"
  }
]

## Task Recorded test outcome, item CNC(=O)CC1NC(=O)c2csc(n2)-c2ccc(-c3nc(C4=NC(C(=O)N5CCCC5C(N)=O)CO4)cs3)nc2-c2csc(n2)-c2csc(n2)C(C(C)C)NC(=O)CNC(=O)c2csc(n2)C(C(C)C)NC(=O)c2nc1sc2C (stereo not drawn)
## Result f

## Task Please state the recorded outcome for this molecule: "COc1cc(Cl)cc(-c2nn(-c3cccc(NC(=O)Nc4cc(C(F)(F)F)cc(C(F)(F)F)c4)c3)cc2-c2ccncc2)c1"
## Result f

## Task Write down the call the test reported for this molecule. Item: "COc1cc(-n2cc(-c3ccc(Cl)cc3)nc2SCc2cccc(C#N)c2)cc(OC)c1OC"
## Result f

## Task Hi, sorry to bother you, what did the test record for "S=c1ssc(Oc2ccccc2)c1Cl" ?
## Result f

## Task Called result for "COc1ccccc1N1CCN(CCc2c[nH]c3cc4c(cc23)OCO4)CC1"
## Result f

## Task How did this test come out for CC(C)COCC(CN(Cc1ccccc1)c1ccccc1)N1CCCC1 (stereo not drawn) ?
## Result f

## Task Entry "O=S(=O)(c1cccc2c(Cl)cccc12)N1CCCNCC1" : call = ?
## Result f

## Task Hello, I am checking results. What call was entered for Cc1ccc2c(c1)C(C)Cc1c(Cl)ncnc1N2C (stereo not drawn) ?
## Result f

## Task I'd appreciate the recorded outcome for CN(C)CC1C(=O)O[C@H]2[C@H]1CC/C(COC(=O)c1cc3ccccc3[nH]1)=C\CC[C@@]1(C)O[C@@H]21 (stereo partly drawn) from this test.
## Result f

## Task Please let me know the test result on file for CCCCCCCCCCC(C(O)c1ccccc1)N1CCCCC1 (stereo not drawn) .
## Result f

## Task Outcome logged for NC1=C(c2nc(-c3ccccc3)cs2)C(c2ccc(Br)cc2)c2c(c3ccccc3oc2=O)O1 (stereo not drawn) in this assay:
## Result f

## Task Which outcome did this test record for the molecule O=c1[nH]c(=O)c2cc(C3CC(O)C(CO)O3)ccc2[nH]1 (stereo not drawn) ?
## Result f

## Task Assay outcome for "COC(=O)C1=C(C(=O)OC)SC(=C(Cl)C(=S)Nc2ccccc2O)S1" : what was it?
## Result f

###

Below, each entry is listed alongside its reported TGI.
System: UACC-62 melanoma
Test Method Notes: NCI tumour cell line growth inhibition, 48 h
Field format: number, assumed µM, no unit text.

[
  {
    "Compound": "CC(C)c1c(O)ccc2c1CCC1C(C)(C)CCCC21C (stereo not given)",
    "TGI (µM)": 28.9
  }
]

## Task For UACC-62 melanoma, provide TGI of "Cc1ccc([N+](=O)[O-])cc1NC(=O)c1cccc([N+](=O)[O-])c1O" please.
## Result 38.1

## Task Query for UACC-62 melanoma: what TGI does the record show for "COc1cccc2c1C(=O)c1c(O)c3c(c(O)c1C2=O)C[C@@](O)(C(=O)CO)C[C@@H]3O[C@H]1C[C@H](N)[C@@H](O)[C@H](C)O1" ?
## Result 0.498
